Numbers sourced from the supplement of paper PMC7877785.

sequences and their reported self-splicing fitness (ln)
test: self-splicing fitness, log relative to wild type (ln ratio); higher = more splicing; Tetrahymena group I intron in knt gene, E. coli kanamycin selection, DiMSum; sequences stand for … in CUCUCU…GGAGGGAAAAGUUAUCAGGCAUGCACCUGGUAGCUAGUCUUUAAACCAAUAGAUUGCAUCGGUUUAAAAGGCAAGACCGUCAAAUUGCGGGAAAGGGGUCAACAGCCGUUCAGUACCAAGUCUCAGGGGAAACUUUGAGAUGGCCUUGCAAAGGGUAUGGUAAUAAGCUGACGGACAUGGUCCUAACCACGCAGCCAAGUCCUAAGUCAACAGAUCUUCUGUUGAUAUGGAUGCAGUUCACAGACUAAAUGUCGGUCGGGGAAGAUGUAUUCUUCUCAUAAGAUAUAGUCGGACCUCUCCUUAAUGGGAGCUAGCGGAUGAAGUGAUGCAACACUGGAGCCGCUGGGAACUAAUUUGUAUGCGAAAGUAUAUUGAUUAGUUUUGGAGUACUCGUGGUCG; conditions: 37 °C;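 also: selection with 25 µg/mL kanamycin versus none on LB agar overnight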

| Residue String | self-splicing fitness (ln) |
| --- | --- |
| AUGCAGCAAUAUUACGGGGG | -1.9 |
| GUGAAGCAAUAUUACGACAA | 0.396 |
| GGACAGCAAUAUUACGGGCC | -1.52 |
| AAUAAGCAAUAUUACGAUAG | -2.13 |
| GAUCAGCAAUAUUACGUGAU | -2.93 |
| GGUUAGCAAUAUUACGGGGA | -2.49 |
| GGAUAGCAAUAUUACGCCCG | -0.949 |
| UGGUAGCAAUAUUACGAAAA | -0.612 |
| CCCAAGCAAUAUUACGCCAG | -3.07 |
| AUAAAGCAAUAUUACGGCGG | -0.197 |
| AGUUAGCAAUAUUACGCUGA | -2.05 |
| UACGAGCAAUAUUACGCACA | -1.29 |
| AACUAGCAAUAUUACGGUCU | 0.465 |
| UCUCAGCAAUAUUACGCCUG | -2.27 |
| AGGUAGCAAUAUUACGUAUA | -1.45 |
| UUACAGCAAUAUUACGUUUC | -2.53 |
| UUACAGCAAUAUUACGUAUA | -0.688 |
| AUCUAGCAAUAUUACGACAC | 0.13 |
| GGACAGCAAUAUUACGGGAA | -1.04 |
| AUAGAGCAAUAUUACGCCGU | 0.511 |
| CGUUAGCAAUAUUACGGGCG | -2.38 |
| AUGUAGCAAUAUUACGUGAU | -0.75 |
| AUCAAGCAAUAUUACGAGCG | -1.21 |
| UGUGAGCAAUAUUACGGCAG | -0.26 |
| AAGUAGCAAUAUUACGACUC | 0.537 |
| AGCUAGCAAUAUUACGGUUU | -1.96 |
| CCGCAGCAAUAUUACGGUCC | -1.99 |
| CCCCAGCAAUAUUACGUGUG | -2.5 |
| CUCUAGCAAUAUUACGAUAG | -3.58 |
| AUCAAGCAAUAUUACGUCCC | 0.17 |
| CACCAGCAAUAUUACGGCGA | -1.23 |
| ACAGAGCAAUAUUACGUACG | -2.3 |
| GGACAGCAAUAUUACGACCA | -0.645 |
| GUGUAGCAAUAUUACGGAGG | -2.67 |
